# ASSAYED_TARGET: T1, recombinant human IL-25 protein (human, UniProt Q9H293 33-177)
# T1 construct: Bought (Acro, catalog no: IL5-H4221) for ELISA; also called hIL-25; IL-17E
# T1 sequence: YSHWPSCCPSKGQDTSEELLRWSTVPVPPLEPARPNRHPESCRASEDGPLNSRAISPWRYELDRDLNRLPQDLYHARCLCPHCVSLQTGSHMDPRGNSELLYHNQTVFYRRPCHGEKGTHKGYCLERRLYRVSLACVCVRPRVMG
# EXPERIMENTAL_DETAILS: BLI (Octet), antibody captured on anti-human Fc biosensor, human IL-25 as analyte
METRIC_NAME: kon (M⁻¹ s⁻¹)
Report as a plain number; the unit M⁻¹ s⁻¹ is understood.

Consider the worked cases shown below.
IL25Ab1 (antibody, V domains shown) VH: QVQLKESGPGLVAPSQSLSITCTVSGFSLTDYGINWVRQPPGKGLEWLGMIWGDGVTHYNSVLKSRLSISKDNSMSQIFLKMNSLQTDDTARYYCARTLFYDGTLYYYAMDYWGQGTSVTVSS VL: QIVLTQSPATMSASPGEKVTMTCSASSSVTYMYWYQQKTGSSPRLLIYDTPNLASGVPVRFSGSGSGTSYSLTISRVEAEDAATYYCQQWSSYPHTWTFGGGTKLEIK | 1.25e+06
IL25Ab5 (antibody, V domains shown) VH: QVQLQQWGAGLLKPSETLSLTCAVYGGSFSAYYWSWIRQSPGKGLEWIGEINHGGNTNYSPSLKSRVTISVDTSKSQFSLKLSSVTAADTAAYYCARGPGITSWAFDFWDQGTMVTVSS VL: DIQMTQSPSSLSASVGDRVTIACQASQDINNYLNWYQQKPGKAPKLLIYDASNLETGVPSRFSGNGSGTDFTFTISSLQPEDIATFYCQQYDTLPYTFGQGTKLEIR | 2.48e+06
IL25Ab3 (antibody, V domains shown, detected with anti-human IgG or anti-human kappa reagents; also called anti-IL-25Ab3; mouse origin of anti-IL-25 specific antibody) VH: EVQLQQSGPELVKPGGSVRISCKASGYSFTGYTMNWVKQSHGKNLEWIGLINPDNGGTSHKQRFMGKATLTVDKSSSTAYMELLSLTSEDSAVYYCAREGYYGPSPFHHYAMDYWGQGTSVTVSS VL: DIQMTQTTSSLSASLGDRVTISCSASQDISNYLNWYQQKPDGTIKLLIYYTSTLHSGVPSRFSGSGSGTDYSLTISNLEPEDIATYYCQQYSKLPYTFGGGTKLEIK | 875000
IL25Ab2 (antibody, V domains shown) VH: QVTLKESGPGILQPSQTLSLTCSFSGFSLSTSGMGVGWIRQPSGKGLEWLAHIWWDDVKQYNPALQSRLTISKDTSSSQVFLKIASVDIADIATYYCARIGPVHHGFPYWGQGALVTVSS VL: QIVLTQSPAIMSAFPGEKVTMSCSASSSVNYMYWHQQKPGSSPRLLIYDTSNLASGVPVRFSGSGSGTSYSLTISRMEAEDAATYYCQQWTSYPPMYTFGGGTKLEIK | 1.36e+06

QUERY: Supply reported kon belonging to this binder: IL25Ab4 (antibody, V domains shown) VH: QVTLKESGPGILQPSQTLSLTCSFSGFSLSTSGMGVSWIRQPSGKGLEWLAHIYWDDAKFYNPSLKSRVTISKDTSRNQVFLRITSVDTADIATYYCARRGYDNYGGFVDWGQGTLVTVSS VL: ENVLIQSPAIMSASLGEKVTMSCRASSSVNYMYWYQQKSDAPPKLWIYYTSNLAPGVPGRFSGSGSGNSYSLTISSMEGEDAATYYCQQFTSYPYMYTFGGGTKLEIK
RESULT: 1.2e+06
